- target-under-test: Myc/Max binding to DNA (Homo sapiens, UniProt P01106)
- Sequence (P01106 whole entry): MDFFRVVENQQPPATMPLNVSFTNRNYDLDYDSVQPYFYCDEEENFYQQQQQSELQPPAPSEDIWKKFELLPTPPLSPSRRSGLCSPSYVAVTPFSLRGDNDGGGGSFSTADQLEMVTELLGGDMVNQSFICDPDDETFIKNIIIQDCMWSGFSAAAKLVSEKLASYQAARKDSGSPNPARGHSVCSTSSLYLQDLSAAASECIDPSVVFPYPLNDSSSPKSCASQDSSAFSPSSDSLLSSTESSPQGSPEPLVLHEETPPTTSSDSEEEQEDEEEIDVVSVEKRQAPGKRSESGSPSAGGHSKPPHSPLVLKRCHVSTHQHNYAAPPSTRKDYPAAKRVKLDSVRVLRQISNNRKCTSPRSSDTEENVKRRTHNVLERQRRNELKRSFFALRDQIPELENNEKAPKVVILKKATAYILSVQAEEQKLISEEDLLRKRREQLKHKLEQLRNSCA
- measurement-protocol: Electrophoretic mobility shift assay (EMSA) of Myc/Max binding to DNA
- Type: biochemical
- measurement-parameters: EMSA, 100 uM test compound; read-out: Bound DNA (%) (100uM)
- Protocol: We also tested our best hit compound Min9 (NUCC-0176234) and newly synthesized analogs for effects of these compounds on Myc/Max binding to DNA in electrophoretic mobility shift assays (EMSAs). (See FIG. 5a and FIG. 5b). We expected the active compounds to impair Myc/Max binding to DNA. Several strucutural analogs of Min9 were tested over multiple doses for inhibiting Myc-DNA binding and we observed a dose-dependent inhibition. (See FIG. 5c). […]
Catalogue of remaining activity at 100 µM readings, one per entry.
attribute-measured: remaining activity at 100 µM (%)

molecule	units-text	result-value
Oc1ccccc1-c1cc(C(F)(F)F)n[nH]1 [compound 0200574]	%	107
COc1cccc(-c2c(-c3ccc(OCc4ccc(Cl)cc4)cc3O)nn(C)c2C(F)(F)F)c1 [compound 0198311]	%	105
NC(=O)c1ccc(Nc2ccc(-c3cc(C(F)(F)F)[nH]n3)c(O)c2)cc1 [compound 0200563]	%	92
CCc1ccc(Oc2c(-c3ccc(OCc4ccc(Cl)c(Cl)c4)cc3O)n[nH]c2C(F)(F)F)cc1 [compound 0196355]	%	25
Cc1ccc(C)c(Oc2cn(C)nc2-c2ccc(OCc3cccc(Cl)c3)cc2O)c1 [compound 0196287]	%	115
Cn1nc(C(F)(F)F)c(-c2cc(C(F)(F)F)cc(C(F)(F)F)c2)c1-c1ccc(OCc2ccc(Cl)cc2)cc1O [compound 0196361]	%	0
Oc1cc(OCc2ccc(Cl)cc2)ccc1-c1cc(C(F)(F)F)nc(-c2ccc(F)cc2)n1 [compound 0200503]	%	91
Oc1cc(OCc2ccc(Cl)cc2)ccc1-c1n[nH]c(C(F)(F)F)c1-c1ccccc1Cl [compound 0196363]	%	5

* * *

- target-under-test: Myc/Max binding to DNA (Homo sapiens, UniProt P01106)
- measurement-protocol: Electrophoretic mobility shift assay (EMSA) of Myc/Max binding to DNA
- Type: biochemical
- measurement-parameters: EMSA, 100 uM test compound; read-out: Bound DNA (%) (100uM)

smiles-code	remaining activity at 100 µM (%)
Cn1nc(C(F)(F)F)c(-c2cc(C(F)(F)F)cc(C(F)(F)F)c2)c1-c1ccc(O)cc1O	36
COc1cccc(-c2c(-c3ccc(OCc4ccc(Cl)cc4)cc3O)n[nH]c2C(F)(F)F)c1	2
CN1CCN(c2ccc(-c3cc(C(F)(F)F)[nH]n3)c(O)c2)CC1	115
CCc1ccc(Oc2c(-c3ccc(O)cc3O)n[nH]c2C(F)(F)F)cc1	0

* * *

- target-under-test: Myc/Max binding to DNA (Homo sapiens)
- measurement-protocol: Electrophoretic mobility shift assay (EMSA) of Myc/Max binding to DNA
- Assay type: biochemical
- measurement-parameters: EMSA, 100 uM test compound; read-out: Bound DNA (%) (100uM)
attribute-measured: remaining activity at 100 µM

smiles-code	result-value
Oc1cc(OCc2ccc(Cl)cc2)ccc1-c1n[nH]cc1-c1cccnc1	52%
NC(=O)c1cccc(-c2c(-c3ccc(OCc4ccc(Cl)cc4)cc3O)n[nH]c2C(F)(F)F)c1	77%
COc1ccccc1-c1cn(C)nc1-c1ccc(OCc2ccc(Cl)cc2)cc1O	93%
Oc1cc(Nc2ccc(Cl)c(Cl)c2)ccc1-c1cc(C(F)(F)F)[nH]n1	4%
COc1ccc(-c2c(-c3ccc(OCc4ccc(Cl)cc4)cc3O)nn(C)c2C(F)(F)F)cc1OC	94%
Cn1nc(-c2ccc(OCc3ccc(Cl)cc3)cc2O)c(-c2ccccc2)c1C(F)(F)F	89%
Cc1ccc(C)c(Oc2cn(C)nc2-c2ccc(OCc3ccc4ccccc4c3)cc2O)c1	110%
Cn1nc(-c2ccc(OCc3ccc(Cl)cc3)cc2O)c(-c2cccc(C#N)c2)c1C(F)(F)F	48%
Cn1nc(C(F)(F)F)cc1-c1ccc(OCc2ccc(Cl)cc2)cc1Cl	62%
Oc1cc(OCc2ccc(Cl)cc2)ccc1-c1n[nH]c(C(F)(F)F)c1-c1ccc(Cl)c(C(F)(F)F)c1	46%
Oc1cc(OCc2ccc(Cl)cc2)ccc1-c1n[nH]c(C(F)(F)F)c1-c1ccc(C(F)(F)F)cc1	98%
CN1CCN(c2ccc(-c3cc(C(F)(F)F)n(C)n3)c(O)c2)CC1	93%
CCc1ccc(Oc2c(-c3ccc(OCc4ccc(Cl)cc4)cc3O)n[nH]c2CC)cc1	87%
Cn1cc(-c2ccc(OCc3ccc(Cl)cc3)cc2N)c(C(F)(F)F)n1	101%
Cn1cc(-c2cccc(Cl)c2)c(-c2ccc(OCc3ccc(Cl)cc3)cc2O)n1	130%
CN/N=C(\C)c1cccc(-c2c(-c3ccc(OCc4ccc(Cl)cc4)cc3O)nn(C)c2C(F)(F)F)c1	89%

* * *

- target-under-test: Myc/Max binding to DNA (Homo sapiens, UniProt P01106)
- measurement-protocol: Electrophoretic mobility shift assay (EMSA) of Myc/Max binding to DNA
pIC50: −log10 of the molar value.

molecule	pIC50
CCc1ccc(Oc2c(-c3ccc(OCCc4cccc(C(F)(F)F)c4)cc3O)n[nH]c2C(F)(F)F)cc1 [NUCC-0176245]	4.02
CCc1ccc(Oc2c(-c3ccc(OCc4cccc(Cl)c4)cc3O)n[nH]c2C(F)(F)F)cc1 [compound 0196295]	4.18
COc1ccc(-c2c(-c3ccc(OCc4ccc(Cl)cc4)cc3O)n[nH]c2C(F)(F)F)cc1OC [compound 0196283]	4.31
CCc1ccc(Oc2c(-c3ccc(OCc4ccc(Cl)cc4)cc3O)nn(C)c2C(F)(F)F)cc1 [NUCC-0176248]	4.02
CCc1ccc(Oc2c(-c3ccc(OCc4ccc(Cl)cc4)cc3O)n[nH]c2C(F)(F)F)cc1 [NUCC-0176242]	4.05
Cn1cc(Oc2ccccc2Cl)c(-c2ccc(OCc3ccc(Cl)cc3)cc2O)n1 [compound 0196305]	4.41
CCc1ccc(Oc2c[nH]nc2-c2ccc(OCc3cnn(-c4ccccc4)c3)cc2O)cc1 [NUCC-0176234]	3.91

* * *

- target-under-test: Myc/Max binding to DNA (Homo sapiens)
- measurement-protocol: Electrophoretic mobility shift assay (EMSA) of Myc/Max binding to DNA
- Assay type: biochemical
- measurement-parameters: EMSA, 100 uM test compound; read-out: Bound DNA (%) (100uM)
attribute-measured: remaining activity at 100 µM (%)

compound	target-under-test	units-text	result-value
Cn1nc(-c2ccc(Nc3ccc(C(N)=O)cc3)cc2O)cc1C(F)(F)F [compound 0200564]	Myc/Max binding to DNA (Homo sapiens)	%	93
Oc1cc(OCc2ccc(Cl)cc2)ccc1-c1n[nH]c(C(F)(F)F)c1-c1ccc(F)cc1 [compound 0196347]	Myc/Max binding to DNA (Homo sapiens)	%	47
N#Cc1cccc(-c2c(C(F)(F)F)n[nH]c2-c2cc(OCc3ccc(Cl)cc3)ccc2O)c1 [compound 0200571]	Myc/Max binding to DNA (Homo sapiens)	%	72
Oc1cc(OCc2ccc(Cl)cc2)ccc1-c1n[nH]c(C(F)(F)F)c1-c1ccc(C(F)(F)F)cc1Cl [compound 0200737]	Myc/Max binding to DNA (Homo sapiens)	%	76
Oc1cc(OCc2ccc(Cl)cc2)ccc1-c1n[nH]c(C(F)(F)F)c1-c1ccoc1 [compound 0198325]	Myc/Max binding to DNA (Homo sapiens)	%	60
COc1ccc(-c2c(-c3ccc(OCc4ccc(Cl)cc4)cc3O)nn(C)c2C)cc1 [compound 0198307]	Myc/Max binding to DNA (Homo sapiens)	%	111
CCc1ccc(Oc2c(-c3ccc(OCc4ccc(Cl)cc4)cc3O)nn(C)c2C(F)(F)F)cc1 [NUCC-0176248]	Myc/Max binding to DNA (Homo sapiens)	%	49
Cn1nc(C(F)(F)F)cc1-c1ccc(N)cn1 [compound 0200688]	Myc/Max binding to DNA (Homo sapiens)	%	103
N#Cc1cc(-c2ccc(Nc3ccc(Cl)cc3)cc2O)n[nH]1 [compound 0200678]	Myc/Max binding to DNA (Homo sapiens)	%	104
Cn1nc(-c2ccc(Nc3ccc(F)c(F)c3)cc2O)cc1C(F)(F)F [compound 0200560]	Myc/Max binding to DNA (Homo sapiens)	%	56
Oc1cc(OCc2ccc(Cl)cc2)ccc1-c1n[nH]c(C(F)(F)F)c1-c1cc(C(F)(F)F)cc(C(F)(F)F)c1 [compound 0196362]	Myc/Max binding to DNA (Homo sapiens)	%	33
Cc1ccc(-c2cn(C)nc2-c2ccc(OCc3ccc(Cl)cc3)cc2O)cc1 [compound 0196346]	Myc/Max binding to DNA (Homo sapiens)	%	114
Cc1ccc(C)c(Oc2c[nH]nc2-c2ccc(OCc3ccc4ccccc4c3)cc2O)c1 [compound 0196290]	Myc/Max binding to DNA (Homo sapiens)	%	92
Cn1nc(C(F)(F)F)c(-c2ccccc2OC(F)(F)F)c1-c1ccc(OCc2ccc(Cl)cc2)cc1O [compound 0198410]	Myc/Max binding to DNA (Homo sapiens)	%	44
Oc1cc(OCc2ccc(Cl)cc2)ccc1-c1n[nH]c(C(F)(F)F)c1Cc1ccccc1Cl [compound 0200490]	Myc/Max binding to DNA (Homo sapiens)	%	99
Oc1cc(OCc2ccc(Cl)cc2)ccc1-c1n[nH]cc1Oc1ccc(Cl)cc1 [compound 0196303]	Myc/Max binding to DNA (Homo sapiens)	%	72
Oc1cc(OCc2ccc(Cl)cc2)ccc1-c1cc(C(F)(F)F)nc(-c2cccc(C(F)(F)F)c2)n1 [compound 0200500]	Myc/Max binding to DNA (Homo sapiens)	%	109
COc1ccccc1-c1c[nH]nc1-c1ccc(OCc2ccc(Cl)cc2)cc1O [compound 0198357]	Myc/Max binding to DNA (Homo sapiens)	%	62
N#Cc1cccc(-c2c(-c3ccc(OCc4ccc(Cl)cc4)cc3O)n[nH]c2C(F)(F)F)c1 [compound 0198398]	Myc/Max binding to DNA (Homo sapiens)	%	3
Cc1ccc(-c2c(C(F)(F)F)n[nH]c2-c2cc(OCc3ccc(Cl)cc3)ccc2O)cc1 [compound 0200572]	Myc/Max binding to DNA (Homo sapiens)	%	78
CCc1nn(C)c(-c2ccc(OCc3ccc(Cl)cc3)cc2O)c1-c1ccccc1 [compound 0198302]	Myc/Max binding to DNA (Homo sapiens)	%	100
Cn1nc(-c2ccc(OCc3ccc(Cl)cc3)cc2O)c(Br)c1C(F)(F)F [compound 0198408]	Myc/Max binding to DNA (Homo sapiens)	%	136
Cn1nc(C(F)(F)F)cc1-c1ccc(OCc2ccc(Cl)cc2)cn1 [compound 0200690]	Myc/Max binding to DNA (Homo sapiens)	%	95
Cn1nc(C(F)(F)F)cc1-c1ccc(O)cn1 [compound 0200687]	Myc/Max binding to DNA (Homo sapiens)	%	101
COc1cccc(-c2c(C(F)(F)F)nn(C)c2-c2ccc(OCc3ccc(Cl)cc3)cc2O)c1 [compound 0198310]	Myc/Max binding to DNA (Homo sapiens)	%	86
Cn1nc(-c2ccc(NCc3ccc(Cl)cc3)cc2O)cc1C(F)(F)F [compound 0200494]	Myc/Max binding to DNA (Homo sapiens)	%	89
CCc1ccc(Oc2c(-c3ccc(OCCc4ccc(Cl)cc4)cc3O)n[nH]c2C(F)(F)F)cc1 [compound 0196357]	Myc/Max binding to DNA (Homo sapiens)	%	28
